Molecular target: human α7 nicotinic acetylcholine receptor (HEK cell line stably expressing human RIC-3 and human α7) (Homo sapiens, UniProt P36544)
Construct: host or cells: HEK cell line (PrecisION hnAChR α7/RIC-3)
Sequence (P36544 23-502): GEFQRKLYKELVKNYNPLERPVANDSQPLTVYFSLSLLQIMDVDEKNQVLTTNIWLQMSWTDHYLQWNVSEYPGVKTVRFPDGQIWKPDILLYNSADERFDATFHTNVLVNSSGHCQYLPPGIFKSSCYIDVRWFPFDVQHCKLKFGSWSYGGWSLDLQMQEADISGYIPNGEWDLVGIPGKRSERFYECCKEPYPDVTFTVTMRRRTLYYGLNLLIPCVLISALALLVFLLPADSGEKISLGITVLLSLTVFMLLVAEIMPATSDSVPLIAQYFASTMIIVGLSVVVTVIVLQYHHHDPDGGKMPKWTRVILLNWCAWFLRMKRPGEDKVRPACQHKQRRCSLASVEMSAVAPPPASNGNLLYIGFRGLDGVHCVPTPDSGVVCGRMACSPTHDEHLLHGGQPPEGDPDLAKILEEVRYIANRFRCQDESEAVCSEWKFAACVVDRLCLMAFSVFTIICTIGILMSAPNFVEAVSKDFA
Assay: Automated patch-clamp electrophysiology functional assay (Assay A), IonFlux HT, whole-cell population patch
Type: cell-based
Conditions: automated patch-clamp electrophysiology functional assay (Assay A); read-out: α7 nAChR EC50
Provide the reported EC50 of each item.
Numbers only, in nM.

Field: example entries. Status: answers known.
compound: COc1ccc(Cl)cc1-c1noc(C2CC23CCN(S(C)(=O)=O)CC3)n1 (racemic)
readout: EC50
val: 1100

compound: NS(=O)(=O)N1CCC2(CC1)C[C@H]2c1noc(-c2ccccc2-n2cccc2)n1
readout: EC50
val: 640

# map each compound to its EC50
1. Cc1onc(C2CC2)c1-c1noc(C2C(F)(F)C23CCN(S(N)(=O)=O)CC3)n1 (stereo not shown)
2. NS(=O)(=O)N1CCC2(CC1)[C@@H](c1nc(C3CCCCC3)no1)C2(F)F
3. NS(=O)(=O)N1CCC2(CC2c2nc(-c3conc3C3CC3)no2)C(F)C1 (single isomer, unassigned) [Example I9]
4. NS(=O)(=O)N1CCC2(CC2c2nc(-c3cccc(OCC(F)(F)F)c3)no2)C(F)(F)C1 (stereo not shown)
5. NS(=O)(=O)N1CCC2(CC1)C[C@H]2c1noc(-c2cccnc2C(F)(F)F)n1
6. Cc1cnn(C2CC2)c1-c1nc([C@@H]2CC23CCN(S(N)(=O)=O)CC3)no1

1: 11; 2: 4500; 3: 3300; 4: 1300; 5: 3400; 6: 520

# map each compound to its EC50
1. Cc1cc(C)c(-c2nc(C3CC34CCN(S(N)(=O)=O)CC4)no2)cc1C (stereo not shown)
2. CC1CN(S(N)(=O)=O)CCC12CC2c1nc(-c2ccnc(OCC(F)(F)F)c2)no1 (single isomer, unassigned)
3. NS(=O)(=O)N1CCC2(CC1)C(c1nc(-c3ccn4ccnc4c3)no1)C2(F)F (stereo not shown)
4. Cc1c(-c2nc([C@@H]3C(F)(F)C34CCN(S(N)(=O)=O)CC4)no2)c(C(F)(F)F)nn1C1CC1

1. 130
2. 1200
3. 2500
4. 500

# map each compound to its EC50
1. NS(=O)(=O)N1CCC2(CC2c2nc(-c3cccc(OC(F)F)c3)no2)C(F)C1 (single isomer, unassigned) [Example I2]
2. NS(=O)(=O)N1CCC2(CC1)C[C@H]2c1noc(-c2cnn(CC(F)(F)F)c2)n1
3. NS(=O)(=O)N1CCC2(CC1)C[C@H]2c1noc(-c2cccnc2OCC(F)(F)F)n1
4. Cn1cc(-c2conc2C2CC2)nc1[C@@H]1C(F)(F)C12CCN(S(N)(=O)=O)CC2
5. NS(=O)(=O)N1CCC2(CC1)C[C@H]2c1nnc(-c2ccc(F)cc2C(F)(F)F)o1
6. NS(=O)(=O)N1CCC2(CC1)C(c1nc(-c3ccccc3)no1)C2(F)F (stereo not shown)
7. NS(=O)(=O)N1CCC2(CC1)[C@H](c1cc(-c3conc3C3CC3)no1)C2(F)F

1000
3000
220
1600
1500
320
16

# map each compound to its EC50
1. Cc1ccccc1-c1nnc([C@@H]2C(F)(F)C23CCN(S(N)(=O)=O)CC3)s1
2. COc1ccc(Cl)cc1-c1noc(C2CC23CCN(C(=O)NC(C)(C)C)CC3)n1 (racemic)
3. NS(=O)(=O)N1CCC2(CC1)C[C@H]2c1csc(-c2conc2C2CC2)n1
4. NS(=O)(=O)N1CCC2(CC1)C[C@H]2c1noc(Cc2c(F)cccc2C(F)(F)F)n1
5. Cc1cnn(C2CC2)c1-c1noc(C2C(F)(F)C23CCN(S(N)(=O)=O)CC3)n1 (stereo not shown)

1. 290
2. 5400
3. 910
4. 7200
5. 82

---

Target: human α7 nicotinic acetylcholine receptor (HEK cell line stably expressing human RIC-3 and human α7) (Homo sapiens)
Construct: host or cells: HEK cell line (PrecisION hnAChR α7/RIC-3)
Experiment: Automated patch-clamp electrophysiology functional assay (Assay A), IonFlux HT, whole-cell population patch
Assay type: cell-based
Conditions: HEK cells expressing human α7/RIC-3; test compound with or without 40 μM acetylcholine; holding potential −60 mV; room temperature; read-out: α7 nAChR Potency
pEC50: −log10 of the molar value.
readout: pEC50

molecule: NS(=O)(=O)N1CCC2(CC1)[C@@H](c1nc(C3CCCCC3)no1)C2(F)F [Example H3]
val: 5.30 to 6.30

# map each molecule to its pEC50
1. NS(=O)(=O)N1CCC2(CC1)[C@H](c1cc(-c3ccc(F)cc3C(F)(F)F)on1)C2(F)F [Example G9]
2. CCc1ncoc1-c1nc([C@@H]2CC23CCN(S(N)(=O)=O)CC3)no1 [Example E24]
3. CCn1nc(C)cc1-c1nc([C@@H]2CC23CCN(S(N)(=O)=O)CC3)no1 [Example E21]
4. Cc1onc(C2CC2)c1-c1nnc([C@@H]2CC23CCN(S(N)(=O)=O)CC3)s1 [Example F12]
5. NS(=O)(=O)N1CCC2(CC1)C[C@H]2c1noc(-c2cccnc2OCC(F)(F)F)n1 [Example E59]
6. NS(=O)(=O)N1CCC2(CC1)C[C@H]2c1nc(-c2ccccc2)co1 [Example G1]
7. NS(=O)(=O)N1CCC2(CC1)C[C@H]2c1nnc(-c2cc(F)ccc2F)s1 [Example F4]

> 7.00
5.30 to 6.30
6.30 to 7.00
5.30 to 6.30
6.30 to 7.00
5.30 to 6.30
5.30 to 6.30

I have this molecule here, NS(=O)(=O)N1CCC2(CC1)C[C@H]2c1noc(-c2cc(Br)ccc2C(F)(F)F)n1 [Example D6] , and I need its recorded pEC50. 6.30 to 7.00

---

Biological target: human α7 nicotinic acetylcholine receptor (HEK cell line stably expressing human RIC-3 and human α7) (Homo sapiens)
Construct: host or cells: HEK cell line (PrecisION hnAChR α7/RIC-3)
Assay: Automated patch-clamp electrophysiology functional assay (Assay A), IonFlux HT, whole-cell population patch
Assay type: cell-based
Details: automated patch-clamp electrophysiology functional assay (Assay A); read-out: α7 nAChR EC50
Provide the reported EC50 of each item.
Give bare numbers, in nM.

Field: example entries. Status: answers known.
molecule: NS(=O)(=O)N1CCC2(CC1)[C@H](c1nnc(-c3ccnn3C3CC3)o1)C2(F)F [Example 16]
unit-spec: nM
val: 450

molecule: NS(=O)(=O)N1CCC2(CC1)C[C@H]2c1noc(-c2ccccc2-c2ncccn2)n1 [Example E76]
unit-spec: nM
val: 3200

# input for lookup
I have this molecule here, CS(=O)(=O)N1CCC2(CC1)C(c1nc(-c3ccc(F)cc3C(F)(F)F)no1)C2(F)F (stereo not drawn) [Example 21] , and I need its recorded EC50. 670

---

Biological target: human α7 nicotinic acetylcholine receptor (HEK cell line stably expressing human RIC-3 and human α7) (Homo sapiens, UniProt P36544)
Construct: host or cells: HEK cell line (PrecisION hnAChR α7/RIC-3)
Assay: Automated patch-clamp electrophysiology functional assay (Assay A), IonFlux HT, whole-cell population patch
Format: cell-based
Settings: automated patch-clamp electrophysiology functional assay (Assay A); read-out: α7 nAChR EC50
readout: pEC50
Give bare numbers, as −log10 of the molar value.

compound: NS(=O)(=O)N1CCC2(CC1)C[C@H]2c1noc(-c2ccc3c(c2)CCCC3)n1
pEC50: 6.96

compound: NS(=O)(=O)N1CCC2(C(F)C1)C(c1nc(-c3ccc(F)cc3C(F)(F)F)no1)C2(F)F (stereo not shown) [Example I15]
pEC50: 5.85

compound: CC(C)n1nccc1-c1nc([C@@H]2CC23CCN(S(N)(=O)=O)CC3)no1
pEC50: 5.82

# input for lookup
I have this compound here, N#Cc1ccccc1-c1nc([C@@H]2CC23CCN(S(N)(=O)=O)CC3)no1 , and I need its recorded pEC50. 5.28

---

Target: human α7 nicotinic acetylcholine receptor (HEK cell line stably expressing human RIC-3 and human α7) (Homo sapiens)
Construct: host or cells: HEK cell line (PrecisION hnAChR α7/RIC-3)
Experiment: Automated patch-clamp electrophysiology functional assay (Assay A), IonFlux HT, whole-cell population patch
Type: cell-based
Conditions: HEK cells expressing human α7/RIC-3; test compound with or without 40 μM acetylcholine; holding potential −60 mV; room temperature; read-out: α7 nAChR Potency
Provide the reported EC50 of each item.

compound: NS(=O)(=O)N1CCC2(CC1)[C@@H](c1nc(-c3ccc(F)cc3C(F)(F)F)no1)C2(F)F [Example H2]
readout: EC50
val: 500 to 5000 nM

# map each compound to its EC50
1. COc1ccc(Cl)cc1-c1noc(C2CC23CCN(S(C)(=O)=O)CC3)n1 (racemic) [Example B14]
2. NS(=O)(=O)N1CCC2(CC1)C[C@H]2c1noc(-c2ccc(F)cc2F)n1 [Example D15]
3. NS(=O)(=O)N1CCC2(CC1)C[C@H]2c1noc(-c2cnccc2C(F)(F)F)n1 [Example E57]
4. NS(=O)(=O)N1CCC2(CC1)[C@H](c1cc(-c3conc3C3CC3)no1)C2(F)F [Example G8]
5. Cc1cnn(C2CC2)c1-c1nc([C@@H]2CC23CCN(S(N)(=O)=O)CC3)no1 [Example E64]
6. COc1ccc(-c2nc([C@@H]3CC34CCN(S(N)(=O)=O)CC4)no2)cc1 [Example D13]

["500 to 5000 nM", "500 to 5000 nM", "500 to 5000 nM", "< 100 nM", "500 to 5000 nM", "500 to 5000 nM"]

Data provenance is patent US11332463B2.
